The reader will find reported YAP1 (% UTC) values listed item by item below.
- Tested on: Yap1 mRNA
- Assay Summary: Antisense inhibition of human Yap1 in A-431 cells by cEt gapmers, single dose (Example 2, RTS4814)
- Assay type: cell-based
- Condition Label: Table 33; Yap1 mRNA, percent of untreated control; 3-10-3 cEt gapmers targeting SEQ ID NO.: 1, and 2
Strand notation (5' to 3'): a small letter for the sugar, then the base; units joined by * are phosphorothioate-linked, units joined directly phosphodiester-linked; [ ] holds rarer units or linkages, { } end groups; capitals alone tell only the bases. k = constrained ethyl (cEt); [5mC] = 5-methylcytosine; d = 2'-deoxy (DNA)
Field format: number, assumed % UTC, no unit text.

Here are 5 substances together with their reported answers.
1074899 (antisense kT*kA*kA*d[5mC]*dT*dT*dT*dT*dG*dG*dG*d[5mC]*dA*kA*kA*kG) [compound 1074899]
52
1075347 (antisense k[5mC]*kA*kT*dA*dG*dG*dT*dA*dG*dG*d[5mC]*dA*dA*k[5mC]*kA*kA) [compound 1075347]
20
1076499 (kG*k[5mC]*kT*dA*dA*dT*dA*dT*dA*dT*d[5mC]*d[5mC]*dA*kA*kT*kT; antisense) [compound 1076499]
37
1074451 (kG*kA*k[5mC]*dT*dA*dA*dT*dG*dA*dT*dA*dG*d[5mC]*kA*k[5mC]*kT; antisense) [compound 1074451]
6
1076371 (antisense kT*kA*kA*dG*dA*dA*d[5mC]*dG*dA*dA*d[5mC]*d[5mC]*dT*k[5mC]*k[5mC]*kA) [compound 1076371]
49

Shift focus to the following entry.
Record 1074835 (k[5mC]*kT*kT*dG*d[5mC]*dG*dA*dG*dG*dA*dT*dA*dA*kA*kA*kT; antisense) [compound 1074835] ; system Yap1 mRNA; YAP1 (% UTC) = 30

The measurements presented in this section are drawn from patent US11214803B2.
